Value source: PubChem BioAssay (NCI)

# System: NCI-H23 lung
# procedure_text: NCI-60 one-dose screen, 48 h (100 = growth as untreated, 0 = no growth, -100 = all killed)
# settings: 10 µM unless noted
Compounds without any hit were thinned out: in the full panel of roughly 83,000, 20% have a hit. The source made the active and inactive calls. The calls were made as follows: active = growth percent below 10; inactive = the rest.
So I've got a bunch of molecules here, and I need their growth values.

Recorded results for 6 molecules are shown here.
>  <molecule>
CS(=O)(CCCCN=C=S)=NC(=O)c1c(F)c(F)c(F)c(F)c1F (stereo not given)

>  <study_target>
NCI-H23 lung

>  <value_kind>
growth

>  <value_reported>
96.7% (inactive)

$$$$
>  <molecule>
CC(=O)Nc1ccc2c(c1)c(NC(C)=O)nn2C(=O)Nc1ccc(Cc2ccccc2)cc1

>  <study_target>
NCI-H23 lung

>  <value_kind>
growth

>  <value_reported>
26.8% (inactive)

$$$$
>  <molecule>
Nc1c(C(=O)Nc2cccc3c2OCCO3)sc2nc3c(cc12)CN(Cc1ccccc1)CC3

>  <study_target>
NCI-H23 lung

>  <value_kind>
growth

>  <value_reported>
85.4% (inactive)

$$$$
>  <molecule>
Cc1ccc(S(=O)(=O)N(CCc2ccc(Cl)cc2)S(=O)(=O)c2ccc(C)cc2)cc1

>  <study_target>
NCI-H23 lung

>  <value_kind>
growth

>  <value_reported>
90.9% (inactive)

$$$$
>  <molecule>
Brc1cccc(-c2nc(-c3ccc4c(c3)OCCO4)co2)c1

>  <study_target>
NCI-H23 lung

>  <value_kind>
growth

>  <value_reported>
71.3% [25 µM] (inactive)

$$$$
>  <molecule>
COc1ccc(CCN2CCCn3c2nc2ccccc2c3=O)cc1

>  <study_target>
NCI-H23 lung

>  <value_kind>
growth

>  <value_reported>
32.7% (inactive)

$$$$

# map each molecule to its growth
1. COc1cc2c(c(OC)c1OC)-c1ccc(N=NC(N)=S)c(=O)cc1[C@@H](NC(C)=O)CC2
2. CCCCN(CC)CCCCCCCCCCN1CCCc2cc(OC)ccc21
3. CCN(CC)c1ccc(/C=C/C2=[N+](C)c3ccccc3C2(C)C)cc1
4. COc1ccc(C(=O)c2sc3nc(-c4ccccc4OC)ccc3c2N)cc1OC

1: 1.29% (active); 2: 13.2% (inactive); 3: 18.6% (inactive); 4: 63.2% (inactive)

----------
# System: NCI-H226 lung
# procedure_text: NCI-60 one-dose screen, 48 h (100 = growth as untreated, 0 = no growth, -100 = all killed)
# settings: 10 µM unless noted
The panel holds about 83,000 compounds, 20% with a hit somewhere; the sample as a whole holds those more often.
Record satisfied whenever growth is at 90% or higher; record not satisfied when lower.

For this compound, is measured growth 90% or higher? "CCCCCC(=O)N(CCCC)CCCC"
satisfied

Please tell me: is the compound "CC[C@H](Nc1cc(C)nc(N)n1)c1nc2cccc(NCc3ccc(C(=O)NO)cc3)c2c(=O)n1-c1ccccc1" at or over 90% in terms of growth?
not satisfied

Entry "CS(=O)(=O)c1ccc(-c2cnc3ccc(-c4cccc(S(C)(=O)=O)c4)nn23)cc1" : is its growth no less than 90%?
not satisfied

Item "COc1nc2c(cc1S(=O)(=O)c1ccccc1)CCc1c-2cnn1Cc1ccccc1" with growth of 90% or above?
not satisfied
